The origin of these recorded values is patent US20200362047A1.

# ASSAYED SYSTEM: T1, human CD137-human Fc chimeric protein (Acro Biosystems cat no. 41B-H5258) (human, UniProt Q07011 24-186)
# T1 construct: Bought protein; The Octet Protein G and Biacore experiments name no catalogue number; also called human CD137Fc recombinant protein; human CD137-Fc recombinant protein; not shown: human IgG1 Fc tag
# EXPERIMENT DESCRIPTION: HTRF binding assay
Reported values of pEC50 for individual entries
For clarity, pEC50 is expressed as the negative log10 of concentration in mol/L.

Q. Fill blank: measured pEC50 of the binder Humabody VH 2.9 (VHH, human single VH domain) VH: EVQLVESGGGLVKPGGSLRLSCAASGFTFSDYYMTWFRQAPGKGLEWISYISGSGDTIDYAESVKGRFTISRDNAKNSLYLQMNSLRAEDTAVYHCAREDSRIAGTTDFDNWGPGTLVTVSSHHHHHH is ____.
A. 8.89

Q. Try Humabody VH 1.78 (VHH, human single VH domain) VH: QVQLVESGGGLVQPGGSLRLSCAATGFTLSNYWMNWVRQAPGKGLEWVANINQDGSERYYVDSVKGRFTISRDNAKNSLYLQMSSLRAEDTAVYFCARGGEGYGVDHYGLDVSGQGTTVTVSSHHHHHH next.
A. 9.68

Q. How about this binder: Humabody VH 1.52 (VHH, human single VH domain) VH: EVQLVESGGGLVQIGGSLRLSCAASGFTFSKYWMIWVRQAPEKGLEWVANINQDGSEKYYVDSVEGRFTISRDNANNSLFLQMNSLRAEDTAVYYCARGGDDYSISHFGMDVSGQGTRVTVSSHHHHHH
A. 9.32

Q. Quick one: Humabody VH 1.11 (VHH, human single VH domain) VH: EVQLVESGGGLVQPGGSLRLSCEASGFTFSDYWMNWARQAPGKGLEWVANIKEDGSEKYYVDSVEGRFTISRDNAKNSTYLQMNSLRAEDTAVYYCARGGAGYSMSHYGMDVWGQGTTVTVSSHHHHHH
A. 9.24
